The measured values listed here are drawn from PubChem BioAssay (NCI).

- Tested on: RPMI-8226 leukemia
- assay summary: NCI tumour cell line growth inhibition, 48 h
Below, each entry is listed with its recorded TGI.

CN1C(=O)C(C(N)=O)C2CC1(C)Oc1ccccc12 (stereo not given); > 100 µM
CN(C)c1ccc(-c2c(C#N)c(O)n(NS(=O)(=O)c3ccccc3)c(=O)c2C#N)cc1; > 100 µM
COC(=O)c1ccc2c(c1)C(=O)c1c-2n(C)c(=O)c2cc(OC)c(OC)cc12; > 50 µM

Lab note: `Cc1c(-c2ccccc2)c(C#N)c2nnn(C3CCCCC3)c(=O)n12` gave TGI of > 100 µM

Item: CCC12CCCNC1c1c(n(C)c3ccccc13)C(C(=O)OC)C2 (stereo not given) | TGI: 199 µM

* * *

- System: SK-MEL-28 melanoma
- assay summary: NCI tumour cell line growth inhibition, 48 h; in the data active = GI50 below about 0.43 µM; inactive = the rest
Pick from t = active, f = inactive when you respond.

Look over these answered cases.
CN(C)CCC=C1c2ccccc2C(C)(C)c2ccccc21; f
O=c1c2cccc(F)c2sc2c(N3CCNCC3)nc3ccccc3c12; f
O=C(NNc1ccc(F)cc1)C1CCC(CNS(=O)(=O)c2ccc(Cl)c(Cl)c2)CC1 (stereo not given); f
CCN(CC)CCOc1ccc(/C=C2\C[C@H]3[C@H]4CC=C5C[C@@H](O)CC[C@]5(C)[C@H]4CC[C@]3(C)[C@H]2O)cc1OC; f
NC1CCC(Nc2nc(NCc3cc(Cl)ccc3O)c3ncn(C4CCCC4)c3n2)CC1 (stereo not given); t

# outcome recorded in this test, key = `CO[C@]12C=C/C(=C(/C(=O)OCc3cccnc3)C(=O)CCCCCCCC[C@@]3(OC)C=C/C(=C(/C(=O)OCc4cccnc4)C(=O)CCCCCCCC1)O3)O2`
f

Record request — test call for `COc1cccc(-n2cc(-c3nc(Nc4cc(C)[nH]n4)c4ccccc4n3)nn2)c1`
f

Just curious, what result did `O=[N+]([O-])c1ccc(Sc2nc(Cl)nc(NC3CCCC3)n2)cc1` get here?
f

How did this test come out for `C/C(=N\NC(=S)N1CCN(C2CCCCCC2)CC1)c1ccccn1` ?
f

Can you look up the reported call for CC1SC2(CCC(c3ccccc3)CC2)N(NC(=O)c2[nH]c3ccc(F)cc3c2-c2ccccc2)C1=O (stereo not given) for me?
f

Would you mind telling me which call this test gave `CC(C)(CCN=C(N)Nc1ccccn1)c1ccc(C(F)(F)F)cc1` ?
f

For `COc1cc(/C=C2\Oc3cc(OCCCN4CCCC4)ccc3C2=O)cc(OC)c1` , which call appears in the assay record?
f

What was the test verdict on `NCCCCCCCCCCCn1c2c(c3ccccc3c1=O)C(=O)c1ccccc1-2` ?
f

// param item: `CC(=O)c1ccc(Nc2nc(Nc3ccc(F)cc3)nc(Nc3ccc(F)cc3)n2)cc1` ; yields the recorded call
f

Recorded test call requested for `CCCCCc1cc[n+](CC(=O)c2ccc([N+](=O)[O-])cc2)cc1`
f

* * *

Reported TGI values for the following compounds.
- Test system: SK-MEL-5 melanoma
- assay summary: NCI tumour cell line growth inhibition, 48 h

For orientation, consider the following solved cases.
O=c1c(C2=NCCC2)c(-c2ccc[nH]2)[nH]n1-c1ccccc1; > 100 µM
CSc1nc2c(nc(N)n2C2OC(COC(C)=O)C(OC(C)=O)C(OC(C)=O)C2OC(C)=O)c(=O)n1C (centres undefined); > 100 µM
C[N+](C)(CCCCCC[N+](C)(C)CCCN1C(=O)c2cc3ccccc3cc2C1=O)CCCN1C(=O)c2cc3ccccc3cc2C1=O; > 37.5 µM
N#Cc1ccsc1NC(=O)COC(=O)c1cccc(S(=O)(=O)N2CCc3ccccc32)c1; > 100 µM
O=c1oc2ccccc2c(O)c1/C=N/C(=S)NCc1ccccc1; > 100 µM
COc1cc(CNC2=NCCC2)cc(OC)c1OC; > 100 µM
COC1=C(Br)C(O)C2(C=C1Br)CC(C(=O)NCCCCNC(=O)C1=NOC3(C=C(Br)C(OC)=C(Br)C3O)C1)=NO2 (centres undefined); 36.6 µM
CCOC(=O)CSc1nnc(CSc2nc(-c3ccccc3)c(-c3ccccc3)[nH]2)n1-c1ccccc1; > 100 µM

Now look at this one.
# TGI of `COC(=O)c1ccc(NCc2c(O)ccc(O)c2Br)cc1Cl` = 34.6 µM
